- Experiment Summary: Transmission spectra of mordanted dyes on receiving element (Table I)
- Format: physicochemical
- Test Context: unmetallized dye; nickel sulfate layer/poly(4-vinylpyridine) mordant receiver; pH 7.0
Quantity Measured: Spectra of Ni-Dye Complexes, Mordant, HBW (half band width) (nm)

Chemical Structure | Unit Tag | Endpoint Value
CC(O)=C(C#N)N=Nc1ccc(S(=O)(=O)Nc2cccc(C(=O)O)c2)c2cccnc12 | nm | 77
N#CC(N=Nc1cccc2cccnc12)=C(O)c1ccccc1 | nm | 75
Cc1nn(-c2ccccc2)c(O)c1N=Nc1cccc2cccnc12 | nm | 116

====

// reported Spectra of Ni-Dye Complexes, Mordant, λ1/2 for each item listed
- Experiment Summary: Transmission spectra of mordanted dyes on receiving element (Table I)
- Type: physicochemical
- Test Context: unmetallized dye; nickel sulfate layer/poly(4-vinylpyridine) mordant receiver; pH 7.0
Quantity Measured: Spectra of Ni-Dye Complexes, Mordant, λ1/2 (nm)

Chemical Structure | Endpoint Value
N#CC(N=Nc1cccc2cccnc12)=C(O)c1ccccc1 | 458
NS(=O)(=O)c1ccc(N=Nc2c(O)n(-c3ccccc3)n(-c3ccccc3)c2=O)c2ncccc12 | 459
O=c1oc2ccccc2c(O)c1N=Nc1cccc2cccnc12 | 452
CC(O)=C(C#N)N=Nc1ccc(S(=O)(=O)Nc2cccc(S(N)(=O)=O)c2)c2cccnc12 | 457
O=c1c(N=Nc2cccc3cccnc23)c(O)n(-c2ccccc2)n1-c1ccccc1 | 439
Cc1nn(-c2ccccc2)c(O)c1N=Nc1cccc2cccnc12 | 447
CC(O)=C(C#N)N=Nc1ccc(S(N)(=O)=O)c2cccnc12 | 456
CC(C)(C)C(O)=C(C#N)N=Nc1ccc(S(=O)(=O)Nc2cccc(S(N)(=O)=O)c2)c2cccnc12 | 455
CC(C)(C)C(O)=C(C#N)N=Nc1ccc(S(N)(=O)=O)c2cccnc12 | 456
CC(O)=C(C#N)N=Nc1ccc(S(=O)(=O)Nc2cccc(O)c2)c2cccnc12 | 459
N#CC(N=Nc1ccc(S(N)(=O)=O)c2cccnc12)=C(O)c1ccccc1 | 470
CC(O)=C(C#N)N=Nc1ccc(S(=O)(=O)Nc2cccc(C(=O)O)c2)c2cccnc12 | 455
